Below are IC50 values recorded for NF-κB (p50) (Homo sapiens, UniProt P19838).
READOUT: IC50 (µM)

[P] Cc1cc(-c2ccc(/N=N/c3ccc4c(S(=O)(=O)O)cc(S(=O)(=O)O)c(N)c4c3O)c(C)c2)ccc1/N=N/c1ccc2c(S(=O)(=O)O)cc(S(=O)(=O)O)c(N)c2c1O
[Q] O=C(NC1=CC(=O)[C@H]2O[C@H]2[C@H]1O)c1ccccc1O [(−)-DHMEQ]
Asked: // compare measured IC50 between P and Q ; output the lower one Please respond with the label that marks your chosen entry.
Given back: Q
(Q: 8.8 µM, P: 12.9 µM)

###

- TARGET_SYSTEM: NF-κB (p52) (Homo sapiens, UniProt Q00653)
- Sequence (Q00653 1-454 limits assumed): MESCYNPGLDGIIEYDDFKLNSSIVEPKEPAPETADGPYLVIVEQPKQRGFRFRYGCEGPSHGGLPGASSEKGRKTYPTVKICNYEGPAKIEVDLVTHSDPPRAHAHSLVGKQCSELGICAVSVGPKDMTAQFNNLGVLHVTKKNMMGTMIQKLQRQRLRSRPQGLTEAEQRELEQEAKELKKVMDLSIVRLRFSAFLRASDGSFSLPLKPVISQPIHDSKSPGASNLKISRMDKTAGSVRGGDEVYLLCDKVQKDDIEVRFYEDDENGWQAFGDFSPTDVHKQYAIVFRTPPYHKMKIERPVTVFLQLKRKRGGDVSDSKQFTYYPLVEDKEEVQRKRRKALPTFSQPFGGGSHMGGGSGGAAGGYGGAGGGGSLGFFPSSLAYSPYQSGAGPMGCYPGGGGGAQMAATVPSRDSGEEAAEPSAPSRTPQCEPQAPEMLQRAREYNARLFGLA
pIC50: −log10 of the molar value.
READOUT: pIC50

[1] Cc1cc(-c2ccc(/N=N/c3ccc4c(S(=O)(=O)O)cc(S(=O)(=O)O)c(N)c4c3O)c(C)c2)ccc1/N=N/c1ccc2c(S(=O)(=O)O)cc(S(=O)(=O)O)c(N)c2c1O
[2] O=C(NC1=CC(=O)[C@H]2O[C@H]2[C@H]1O)c1ccccc1O [(−)-DHMEQ]
Asked: // compare measured pIC50 between 1 and 2 ; output the lower one Please respond with the label that marks your chosen entry.
Given back: 2
(2: 4.20, 1: 4.89)
